Where do the numbers come from? From ChEMBL document CHEMBL5303573.

experiment: The drug is tested on Enterococcus faecalis strain: V583 for biotransformation. The drug concentrations were measured before and after a 12-h incubation by liquid-chromatography-coupled mass spectrometry (LC–MS); details: 2 µM
quantity.kind: Bacterial Biotransformation

# example entries with known answers
{"columns": ["compound", "Bacterial Biotransformation"],
 "data": [
  ["C[C@]12C=CC(=O)C=C1CC[C@@H]1[C@@H]2C(=O)C[C@@]2(C)[C@H]1CC[C@]2(O)C(=O)CO [PREDNISONE]", "Compound NOT metabolized"],
  ["Cc1ccccc1C(OCCN(C)C)c1ccccc1.O=C(O)CC(O)(CC(=O)O)C(=O)O (stereo not drawn) [ORPHENADRINE CITRATE]", "Compound NOT metabolized"],
  ["OC(CCN1CCCCC1)(c1ccccc1)C1CC2C=CC1C2 (stereo not drawn) [BIPERIDEN]", "Compound NOT metabolized"],
  ["CC(C)(C)NCC(O)c1cc(Cl)c(N)c(Cl)c1 (stereo not drawn) [CLENBUTEROL]", "Compound NOT metabolized"],
  ["CNCCC(Oc1ccc(C(F)(F)F)cc1)c1ccccc1 (stereo not drawn) [FLUOXETINE]", "Compound metabolized"]
]}

Looking for the measured Bacterial Biotransformation of CCN(CC)C(=O)/C(C#N)=C/c1cc(O)c(O)c([N+](=O)[O-])c1 [ENTACAPONE] , can you help? Compound metabolized

Looking for the measured Bacterial Biotransformation of CC[C@@H](CO)NC(=O)[C@@H]1C=C2c3cccc4c3c(cn4C)C[C@H]2N(C)C1.O=C(O)/C=C\C(=O)O [METHYSERGIDE MALEATE] , can you help? Compound metabolized

Looking for the measured Bacterial Biotransformation of Cc1nc(Nc2ncc(C(=O)Nc3c(C)cccc3Cl)s2)cc(N2CCN(CCO)CC2)n1.O [DASATINIB] , can you help? Compound NOT metabolized

Looking for the measured Bacterial Biotransformation of CCc1cccc2c3c([nH]c12)C(CC)(CC(=O)O)OCC3 (stereo not drawn) [ETODOLAC] , can you help? Compound NOT metabolized

Looking for the measured Bacterial Biotransformation of CCN(CC)CCOCCOC(=O)C1(c2ccccc2)CCCC1.O=C(O)CC(O)(CC(=O)O)C(=O)O [CARBETAPENTANE CITRATE] , can you help? Compound metabolized

Looking for the measured Bacterial Biotransformation of CCC(=O)NCC[C@@H]1CCc2ccc3c(c21)CCO3 [RAMELTEON] , can you help? Compound NOT metabolized

Looking for the measured Bacterial Biotransformation of COc1ccc2c(c1)c(CC(=O)O)c(C)n2C(=O)c1ccc(Cl)cc1 [INDOMETHACIN] , can you help? Compound NOT metabolized

Looking for the measured Bacterial Biotransformation of O=C(NC(Cc1cc(=O)[nH]c2ccccc12)C(=O)O)c1ccc(Cl)cc1 (stereo not drawn) [REBAMIPIDE] , can you help? Compound NOT metabolized

Looking for the measured Bacterial Biotransformation of COC(=O)C1=C(C)NC(C)=C(C(=O)OC(C)C)C1c1cccc2nonc12 (stereo not drawn) [ISRADIPINE] , can you help? Compound NOT metabolized

Looking for the measured Bacterial Biotransformation of COc1ccc(Cc2nccc3cc(OC)c(OC)cc23)cc1OC [PAPAVERINE] , can you help? Compound NOT metabolized

Looking for the measured Bacterial Biotransformation of N#Cc1ccc2[nH]cc(CCCCN3CCN(c4ccc5oc(C(N)=O)cc5c4)CC3)c2c1 [VILAZODONE] , can you help? Compound metabolized
